Measured pEC50 values are reported for all entries that follow.
Target: GPR84 W360A (GPR84-Gi2α fusion protein) (Homo sapiens, UniProt Q9NQS5, W360A)
Construct: FLAG (N); Gαi2-Cys352Ile (fusion partner) (C)
Sequence (Q9NQS5 whole entry W360A, the tested form may be a part): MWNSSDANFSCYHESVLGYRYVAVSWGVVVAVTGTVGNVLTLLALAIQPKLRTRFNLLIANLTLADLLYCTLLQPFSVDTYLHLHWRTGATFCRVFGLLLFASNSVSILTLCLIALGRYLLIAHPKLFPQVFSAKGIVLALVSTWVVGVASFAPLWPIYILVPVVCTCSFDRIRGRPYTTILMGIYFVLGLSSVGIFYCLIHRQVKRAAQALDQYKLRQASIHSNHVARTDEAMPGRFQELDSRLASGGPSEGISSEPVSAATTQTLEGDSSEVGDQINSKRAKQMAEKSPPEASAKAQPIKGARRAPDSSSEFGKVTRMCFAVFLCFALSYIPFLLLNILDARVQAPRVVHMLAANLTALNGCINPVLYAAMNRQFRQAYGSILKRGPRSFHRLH
Experiment: [35S]GTPγS binding assay
Conditions: [35S]GTPγS; W360A
pEC50: −log10 of the molar value.

{"columns": ["SMILES STRING", "pEC50"],
 "data": [
  ["[O-][n+]1cc(O)cc(CCc2ccc(Cl)c(C(F)(F)F)c2)c1", 8.06],
  ["Cc1cc(CCCc2cc(O)c[n+]([O-])c2)ccc1Cl", 7.87]
]}

The values you see were collected from paper doi:10.1101/2025.07.30.667614.
